Where do the numbers come from? From patent US4124721A.

Experiment Notes: peroral toxicity to mammals (rat LD50)
Type: in vivo
Condition Set: rat, in vivo, po, peroral, rat, mortality rate of 50 percent; read-out: Rat LD50 (Table I)
Listed next: entries and their corresponding LD50.
Entry rule: numbers only, all in mg/kg.

Please review the entries below; each comes with its answer.
CC(C)c1cccc(OC(=O)N(C)SN(C)C(=O)Oc2cccc3c2OC(C)(C)C3)c1 [Compound 3]; 80
CN(SN(C)C(=O)Oc1cccc2c1OC(C)(C)C2)C(=O)Oc1ccc([N+](=O)[O-])cc1; 25
CSc1ccc(OC(=O)N(C)SN(C)C(=O)Oc2cccc3c2OC(C)(C)C3)cc1C; 18

Read the next record carefully.
Look up and state reported LD50 for CN(SN(C)C(=O)Oc1cccc2c1OC(C)(C)C2)C(=O)Oc1ccc(C(C)(C)C)cc1 [Compound 4]
45

---

Listed next: entries and their corresponding LD50.
Experiment Notes: peroral toxicity to mammals (rat LD50)
Type: in vivo
Condition Set: rat, in vivo, po, rat; comparative test; read-out: Rat LD50 (Table II)
Entry rule: numbers only, all in mg/kg.

CN(SN(C)C(=O)Oc1cccc2c1OC(C)(C)C2)C(=O)Oc1ccc(C(C)(C)C)cc1; 45

Look up and state reported LD50 for "CN(SN(C)C(=O)Oc1cccc2c1OC(C)(C)C2)C(=O)Oc1ccc([N+](=O)[O-])cc1"
25.2

Look up and state reported LD50 for CN(SN(C)C(=O)Oc1cccc2c1OC(C)(C)C2)C(=O)Oc1cccc2c1OC(C)(C)C2 [Compound 2, reference compound]
6.3

Look up and state reported LD50 for CNC(=O)Oc1cccc2c1OC(C)(C)C2 [Compound 1, reference compound]
5

Look up and state reported LD50 for "CC(C)c1cccc(OC(=O)N(C)SN(C)C(=O)Oc2cccc3c2OC(C)(C)C3)c1"
80

---

System: Mexican bean beetle (Epilachna varivestis, Muls.)
Experiment Notes: Mexican Bean Beetle Leaf Spray Test
Assay type: in vivo
Condition Set: read-out: Mexican Bean Beetle LD50
Assay Metric: LC50
Express the reported value numerically, then name its unit.

Please tell me the measured LC50 for CN(SN(C)C(=O)Oc1cccc2c1OC(C)(C)C2)C(=O)Oc1cccc2c1OC(C)(C)C2 [Compound 2, reference compound] ; system: Mexican bean beetle (Epilachna varivestis, Muls.).
2 µg/mL

Please tell me the measured LC50 for "CN(SN(C)C(=O)Oc1cccc2c1OC(C)(C)C2)C(=O)Oc1ccc([N+](=O)[O-])cc1" ; system: Mexican bean beetle (Epilachna varivestis, Muls.).
4 µg/mL

Please tell me the measured LC50 for "CN(SN(C)C(=O)Oc1cccc2c1OC(C)(C)C2)C(=O)Oc1ccc(C(C)(C)C)cc1" ; system: Mexican bean beetle (Epilachna varivestis, Muls.).
18 µg/mL

Please tell me the measured LC50 for "CC(C)c1cccc(OC(=O)N(C)SN(C)C(=O)Oc2cccc3c2OC(C)(C)C3)c1" ; system: Mexican bean beetle (Epilachna varivestis, Muls.).
3 µg/mL
